Here, compounds appear alongside pIC50 reported for human GST-DYRK1A (Homo sapiens, UniProt Q13627) in the literature.
pIC50: −log10 of the molar value.

These recorded examples may help you get a feel for the data.
compound | attribute-measured | data-value
CNc1cc(Nc2ccc(S(C)(=O)=O)cc2OC)nc2[nH]ccc12 | pIC50 | 6.00 to 6.52
CCNc1cc(Nc2ccc(C(=O)N3OCC[C@H]3c3cc(F)cc(F)c3)c3c2OCC3)nc2[nH]cc(C(F)(F)F)c12 | pIC50 | 6.00 to 6.52
COc1cc(P2(=O)CCN(C3CCOCC3)CC2)ccc1Nc1nc(NC2CCCCC2)c2cc[nH]c2n1 | pIC50 | 6.00 to 6.52
CC[C@H](C)Nc1nc(Nc2ccc(S(=O)(=O)N3CCC(N4CCOCC4)CC3)cc2OC)nc2[nH]cc(C(F)(F)F)c12 | pIC50 | 6.00 to 6.52

Entry `CC(C)CNc1cc(Nc2ccc(C(=O)N3CCOCC3)c3c2OCCO3)nc2[nH]ccc12` , system human GST-DYRK1A (Homo sapiens, UniProt Q13627): what pIC50 was measured?
6.00 to 6.52

# returns recorded pIC50 (system: human GST-DYRK1A (Homo sapiens, UniProt Q13627)) for COCC#CC1CNC(=O)N1c1nc2c3c(ccc2s1)OCC3 (racemic)
6.00 to 7.00

Observed pIC50 on human GST-DYRK1A (Homo sapiens, UniProt Q13627) for `COc1cc(S(=O)(=O)N2CCC(N3CCOCC3)CC2)ccc1Nc1nc(NC2CC2)c2cc[nH]c2n1` , please.
6.00 to 6.52

Give recorded pIC50 with human GST-DYRK1A (Homo sapiens, UniProt Q13627) for the following compound: `COc1cc(S(=O)(=O)N2CCOCC2)ccc1Nc1cc(NCCS(C)(=O)=O)c2c(C#N)c[nH]c2n1`
6.52 to 7.00

State its pIC50 on human GST-DYRK1A (Homo sapiens, UniProt Q13627): Cc1cnc(NC(=O)Nc2cccc3c2C2CC4(CCN2C3=O)SCCS4)cn1 (stereo not shown)
< 5.00

API: value(readout=pIC50, system=human GST-DYRK1A (Homo sapiens, UniProt Q13627)) for record Cn1ccc(NC(=O)Nc2cccc3c2C2CCCCN2C3=O)n1 (stereo not shown)
< 5.00

Lab note: need pIC50 for `COCC(C)(C)Nc1nc(Nc2ccc(S(=O)(=O)N3CCOCC3)cc2OC)nc2[nH]cc(C#N)c12` on human GST-DYRK1A (Homo sapiens, UniProt Q13627), anyone have it?
6.00 to 6.52

Lab request: please report pIC50 under test system human GST-DYRK1A (Homo sapiens, UniProt Q13627) for `COCCNc1nc(Nc2ccc(C(=O)N3CCOCC3)c3c2OCC3)nc2[nH]cc(C(F)(F)F)c12`
> 7.00
